// data source = PubChem BioAssay AID1942

biological target: Potassium voltage-gated channel subfamily KQT member 2 (Rattus norvegicus); assay: KCNQ2 potentiation in CHO cells – cell-based, FluxOR thallium flux, counter-screen for hERG block protector project, confirmation (AID 1942); settings: FluxOR thallium flux fluorescence, at 10 µM, active compounds read high;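 note: normalized value minus buffer-control mean plus three SD of buffer wells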
In all, about 2,400 compounds went through this assay and about 580 (24%) were called active. The list is a sample of the results.
Consider the following compounds; for each one, report its activity change, less the hit threshold.

May I ask what activity change, less the hit threshold has been recorded for COc1ccc(C(=O)N(CN2CCCC2=O)c2ccc(C)cc2)cc1 ?
-3.9% (inactive)

Request the reported activity change, less the hit threshold associated with COC(=O)Cn1c(=O)c(=O)n(CC(=O)OC)c2ccccc21
-18.3% (inactive)

Could you share which activity change, less the hit threshold value was measured for COc1cc(NS(=O)(=O)c2ccc(NC(=S)Nc3ccccc3)cc2)nc(OC)n1 ?
-20.8% (inactive)

Can you look up the measured activity change, less the hit threshold of COc1cccc(C=Nc2cc(C)cc(C)c2)c1O for me?
10% (active)

Would you mind telling me what activity change, less the hit threshold value was observed for CCc1cccc2c1NC(=O)C2(O)CC(=O)c1cccs1 (stereo not drawn) ?
-20.9% (inactive)

What does the data say about its activity change, less the hit threshold? Entry: COc1cccc(/C=N/Nc2nc3ccccc3[nH]2)c1O
-3.2% (inactive)

I'd like to know its activity change, less the hit threshold. The compound in question is COc1cccc(C=NCC(C)N=Cc2cccc(OC)c2O)c1O (stereo not drawn)
-2.9% (inactive)

If you can, please state the reported activity change, less the hit threshold value of CC(=O)C1=C(O)C(=O)N(c2cccnc2)C1c1ccc(Cl)cc1 (stereo not drawn) .
-25.8% (inactive)

Which activity change, less the hit threshold is listed for CC1(C)Cc2c(sc(NC(=O)C(=O)N3CCCC3)c2C#N)CO1 ?
-3.6% (inactive)

Query: activity change, less the hit threshold; subject: O=C(NC(=S)Nc1cccc(Cl)c1N1CCCCC1)c1ccco1
-12.3% (inactive)

What activity change, less the hit threshold value was documented for this compound, CCOc1cccc(/C=N/NC(=O)c2ccc3c(c2)OCCO3)c1O ?
-18.5% (inactive)

GET /values?readout=activity change, less the hit threshold&item= CC(C)(C)c1csc(NC(=O)C2=COCCO2)n1
-13% (inactive)

Give its activity change, less the hit threshold value. Item: CCc1nccn1S(=O)(=O)c1ccc2ccc(C)cc2c1
-8.3% (inactive)

Name the recorded activity change, less the hit threshold for COc1ccc(Cc2c(O)nc(SCC(=O)NC(C)(C)C)[nH]c2=O)cc1 .
-19.2% (inactive)

Can you share its activity change, less the hit threshold? I mean this compound: Cc1ccc(C(=O)O)cc1-c1ccc(/C=C2\SC(=O)N(CC(=O)Nc3ccccc3)C2=O)o1
-22% (inactive)

Sample COc1cc2c(cc1OC)CN(C(=O)c1sccc1C)CC2 — what was its activity change, less the hit threshold?
-20.7% (inactive)

Requested field: activity change, less the hit threshold. Item: Cc1ccc(-c2nc(CS(=O)(=O)CC(=O)NCCN3CCOCC3)c(C)o2)cc1
-12.6% (inactive)

Request the reported activity change, less the hit threshold associated with Cc1ccccc1NC(=O)CSc1ccsc1[N+](=O)[O-]
-24.3% (inactive)

Give its activity change, less the hit threshold value. Item: CC(C)=CC(=O)OCC(=O)Nc1ccc(SC(F)F)cc1
-15.7% (inactive)

Quick one: activity change, less the hit threshold of O=C(NC(=S)Nc1cc(C(F)(F)F)ccc1N1CCOCC1)c1ccco1 ?
-11.4% (inactive)

What value of measured activity change, less the hit threshold is listed for Cc1ccc2c(CN3CCOCC3)cc(=O)oc2c1 ?
-5.1% (inactive)

Item O=C(CCc1ccc(S(=O)(=O)N2CCCCC2)cc1)c1nnc(-c2ccccc2)o1 has what recorded activity change, less the hit threshold?
-13.3% (inactive)

For the compound O=C(NCCCN1CCCC1=O)c1ccc(OC(F)(F)F)cc1 , what activity change, less the hit threshold is on record?
-19.5% (inactive)

----------
target: Potassium voltage-gated channel subfamily KQT member 2 (Rattus norvegicus) (UniProt O88943); test: KCNQ2 potentiation in CHO cells – cell-based, FluxOR thallium flux, counter-screen for hERG block protector project, confirmation (AID 1942); details: FluxOR thallium flux fluorescence, at 10 µM;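 note: normalized value minus buffer-control mean plus three SD of buffer wells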
Sequence (O88943 whole entry, looked up): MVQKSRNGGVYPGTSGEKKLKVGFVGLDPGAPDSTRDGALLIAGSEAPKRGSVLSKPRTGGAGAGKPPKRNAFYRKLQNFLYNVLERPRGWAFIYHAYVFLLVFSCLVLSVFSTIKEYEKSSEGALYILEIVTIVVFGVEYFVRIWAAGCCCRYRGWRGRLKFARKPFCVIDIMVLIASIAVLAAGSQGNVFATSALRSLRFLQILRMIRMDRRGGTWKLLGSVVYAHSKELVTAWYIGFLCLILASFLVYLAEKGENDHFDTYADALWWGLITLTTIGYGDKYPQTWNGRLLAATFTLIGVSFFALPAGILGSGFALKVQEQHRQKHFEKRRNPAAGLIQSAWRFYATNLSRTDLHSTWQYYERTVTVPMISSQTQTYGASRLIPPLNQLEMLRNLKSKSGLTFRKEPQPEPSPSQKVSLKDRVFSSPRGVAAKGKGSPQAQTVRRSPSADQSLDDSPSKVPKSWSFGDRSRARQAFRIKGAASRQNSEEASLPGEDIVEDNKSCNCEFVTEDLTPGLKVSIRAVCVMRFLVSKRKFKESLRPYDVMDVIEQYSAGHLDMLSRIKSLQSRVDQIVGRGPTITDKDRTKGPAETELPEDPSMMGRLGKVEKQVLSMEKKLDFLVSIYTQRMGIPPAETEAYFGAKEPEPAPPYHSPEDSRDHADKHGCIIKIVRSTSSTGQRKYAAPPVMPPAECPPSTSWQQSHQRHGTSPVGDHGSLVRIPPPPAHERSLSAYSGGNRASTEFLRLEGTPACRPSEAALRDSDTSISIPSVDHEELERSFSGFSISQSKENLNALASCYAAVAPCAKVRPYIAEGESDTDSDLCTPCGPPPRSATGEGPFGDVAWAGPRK
Screen size: about 2,400 compounds; about 580 (24%) were called active.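 The calls were made as follows: active = activity change at or above the mean plus 3 SD of buffer wells without dofetilide, per plate; inactive = the rest.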 Not all results are given here.
Return exactly one item of active, inactive

Recorded test call requested for CC1CCc2sc(-c3n[nH]c(=S)o3)cc2C1 (stereo unspecified)
active

Assay result, entry COc1ccc(C(=O)O)cc1S(=O)(=O)Nc1cccc(C(F)(F)F)c1 — outcome?
inactive

Could you check what this test reported for CCOC(=O)C1CCN(C(=O)CCS(=O)(=O)c2ccc3c(c2)CCN3C(=O)CC)CC1 ?
inactive

Recorded test outcome, item O=C(NC(=S)Nc1ccccc1)c1csnn1
active

Can you look up the reported call for Cc1nn(-c2ccccc2)c(N2CCCC2)c1/C=N/O for me?
inactive

I would be grateful if you could indicate the recorded call for C=CCn1c(N2CCCCCC2)nc2c1c(=O)n(C)c(=O)n2C .
inactive

----------
target: Potassium voltage-gated channel subfamily KQT member 2 (Rattus norvegicus) (UniProt O88943); assay: KCNQ2 potentiation in CHO cells – cell-based, FluxOR thallium flux, counter-screen for hERG block protector project, confirmation (AID 1942); settings: FluxOR thallium flux fluorescence, at 10 µM, active compounds read high;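 note: normalized value minus buffer-control mean plus three SD of buffer wells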
The whole screen tested about 2,400 compounds, of which about 580 (24%) were called active. Only a sample is shown.
readout: activity change, less the hit threshold (%)
Could you give me the number in %? Just the number is fine.

State the recorded activity change, less the hit threshold for this entry: O=C(CCc1ccccc1)Nc1nnc(-c2ccccn2)o1
-17.4

Find the recorded activity change, less the hit threshold belonging to CCSc1nnc(NC(=O)Cn2cnc3c2c(=O)n(C)c(=O)n3C)s1 and report it.
-15.7

// returns reported activity change, less the hit threshold for input O=C(Nc1nnc(-c2ccc3c(c2)CCCC3)o1)C1COc2ccccc2O1 (stereo unspecified)
4.3

activity change, less the hit threshold for Cc1cc(SCC(=O)c2cccc([N+](=O)[O-])c2)nc(=O)[nH]1 ?
-15.5

Sample O=C(Cc1ccc(Cl)cc1)Nc1cccc(-c2nnc(-c3ccco3)o2)c1 — what was its activity change, less the hit threshold?
-13.4

// query activity change, less the hit threshold value for entry Cc1ccccc1C(=O)NNC(=O)c1cccc([N+](=O)[O-])c1
-19.8

Reported activity change, less the hit threshold for O=C(Nc1nnc(-c2ccc3c(c2)CCCC3)o1)c1ccc(Cl)cc1Cl : what is it?
30.2

Using the record for CCOC(=O)/C(C)=N/NC(=O)c1cccc([N+](=O)[O-])c1 , report its activity change, less the hit threshold.
5.2

# activity change, less the hit threshold lookup, item C/C(Cl)=C\Cn1c(O)c(N=NC(N)=S)c2cc(Br)ccc21
16.1

Entry under review: CCOc1ccc(C(=O)N/N=C/c2cc([N+](=O)[O-])cs2)cc1 . Reported activity change, less the hit threshold?
-17.4

Would you kindly share the measured activity change, less the hit threshold for CCOC(=O)c1[nH]cnc1C(=O)Nc1ccc([N+](=O)[O-])cc1 ?
-11.7

----------
molecular target: Potassium voltage-gated channel subfamily KQT member 2 (Rattus norvegicus); test: KCNQ2 potentiation in CHO cells – cell-based, FluxOR thallium flux, counter-screen for hERG block protector project, confirmation (AID 1942); settings: FluxOR thallium flux fluorescence, at 10 µM;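 note: normalized value minus buffer-control mean plus three SD of buffer wells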
Hit rate of the full screen: of about 2,400 compounds, about 580 (24%) were called active.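 How the source made its calls: active means activity change at or above the mean plus 3 SD of buffer wells without dofetilide, per plate; inactive means the rest.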 The list is a sample of the results.
Lab note: assign the record to one of active, inactive

What did the test return for O=C(Nc1ccc(N2CCN(C(=O)c3ccc(Cl)cc3)CC2)cc1)c1ccc([N+](=O)[O-])o1 ?
inactive

Recorded test outcome, item O=c1cc(CN2CCN(S(=O)(=O)c3ccc4c(c3)OCCO4)CC2)c2ccc(O)cc2o1
inactive

Hello, I am checking results. What call was entered for O=C(Nc1ccc(Cl)cc1)Nn1cnnc1 ?
inactive

Dear colleague, could you share the recorded outcome for S=c1[nH]nc(-c2ccco2)n1/N=C/C(Cl)=C/c1ccccc1 when you have a moment?
inactive

Just curious, what result did CC(=O)OCC1O[C@@H](O[C@@H]2C[C@H]3C(C)(C)[C@H](OC(C)=O)CC[C@]3(C)[C@H]3CC[C@]45C[C@]4(CC[C@H]5[C@@H](C)C[C@@H](O)[C@H](O)C(C)(C)O)[C@@]32C)[C@H](O)[C@@H](O)[C@@H]1O (stereo partly specified) get here?
active

Any idea what this test logged for Cc1ccccc1CC(=O)NC1CCN(Cc2ccccc2)CC1 ?
inactive

Recorded test call requested for O=c1c([N+](=O)[O-])c(N2CCCCC2)c2ccccc2n1-c1ccccc1
inactive

Per the records of this test, what outcome belongs to CCOc1cc(-n2ncc(C#N)c2N)nc(SC)n1 ?
inactive

Entry CCc1nc(C)ccc1OCC(=O)N1CCc2c([nH]c3ccccc23)C1c1ccccn1 (stereo unspecified) : call = ?
inactive

Please share the test call associated with S=c1nc(-c2ccccc2)[nH]n1-c1ccccc1 .
active

Name the outcome recorded for COc1ccc(-c2c(C)c3ccc(OCC(C)=O)cc3oc2=O)cc1 in the assay.
inactive

Recorded test call requested for CC(=O)c1c(N2CCCC2)[nH]c(-c2ccccc2)nc1=S
inactive

Could you kindly confirm the outcome this assay logged for CCOc1ccccc1CNC(=O)CNC(=O)c1cccs1 ?
inactive

Each compound tested received a call. Report the one for Nc1nc2n(n1)C1(CCCCC1)C1=C(CCCC1)N2 .
inactive

Test call, this compound: O=C1NC(=S)/C(=C\c2ccc(-c3ccccc3Cl)o2)S1
inactive

Assay outcome for N#Cc1cccc(NC(=O)c2nc(-c3ccccc3)n(-c3ccccc3)n2)c1 : what was it?
inactive

Hi team, can someone confirm the assay call for CC(=O)c1c(N2CCN(Cc3ccccc3)CC2)[nH]c(-c2ccccc2)nc1=S ?
active

Identify the outcome logged in this assay for the compound shown: CSc1nc(-c2ccccc2)[nH]c(=S)c1C(C)=O
active

Fill in: this test's call for Cc1ccc(-n2c(C)cc(C(=O)CN3CCOCC3)c2C)cc1 is ___
inactive

What call does the record list for CC(=O)c1c(NC(=O)c2ccccc2)[nH]c(-c2ccccc2)nc1=S ?
active

Call for entry Cc1nn(-c2cccc(C(F)(F)F)c2)c(Cl)c1/C=N/Nc1cccc(C(=O)O)c1 :
active
